Biological target: human PAH with the R408W mutation (Homo sapiens, UniProt P00439, R408W)
Construct: expressed in transfected cells
Sequence (P00439 1-452 R408W): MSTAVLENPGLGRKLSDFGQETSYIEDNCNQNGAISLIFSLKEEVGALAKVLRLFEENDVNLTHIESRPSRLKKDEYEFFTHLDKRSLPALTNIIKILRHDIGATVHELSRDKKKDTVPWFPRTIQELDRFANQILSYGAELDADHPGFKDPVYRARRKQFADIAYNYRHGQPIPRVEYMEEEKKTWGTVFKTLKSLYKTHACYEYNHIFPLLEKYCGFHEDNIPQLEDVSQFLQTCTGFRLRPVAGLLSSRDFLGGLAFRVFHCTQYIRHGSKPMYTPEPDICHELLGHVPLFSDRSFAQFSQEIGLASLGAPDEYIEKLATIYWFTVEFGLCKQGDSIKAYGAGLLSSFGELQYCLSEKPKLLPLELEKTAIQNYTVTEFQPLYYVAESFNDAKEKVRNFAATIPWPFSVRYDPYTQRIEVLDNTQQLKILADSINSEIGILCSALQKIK
Experiment: Cell Based Phenylalanine Flux Assay
Settings: A375 cells expressing human R408W PAH; 24 hrs compound incubation; 13C-Tyrosine by LC-MS; average where tested multiple times; read-out: AC50
AC50: recorded values

These solved cases illustrate the format of a correct answer.
LINE NOTATION	TEST TARGET	AC50
O=C(c1cnc(-c2ccccc2)o1)N1CCc2[nH]cnc2[C@@H]1c1nc2ccccc2s1	human PAH with the R408W mutation (Homo sapiens, UniProt P00439, R408W)	1000 to 5000 nM
CC(C)(C)c1ncc(C(=O)N2CCc3[nH]cnc3[C@@H]2c2nc3c(F)cccc3s2)s1	human PAH with the R408W mutation (Homo sapiens, UniProt P00439, R408W)	500 to 1000 nM

-- ask Recall the reported AC50 of O=C(c1oc(C2CC(F)(F)C2)nc1C(F)F)N1CCc2[nH]cnc2[C@@H]1c1nc2ccccc2s1 on human PAH with the R408W mutation (Homo sapiens, UniProt P00439, R408W) and write it down.
-- reply < 500 nM
